These data points were gathered from patent US11725006B2.

experiment: Alcohol-solubility examination in 95% ethanol under refluxing; type: physicochemical; conditions: per gram of compound, within 30 minutes
Recorded Metric: amount of 95% ethanol solvent required for dissolving each gram (mL)
# unit: mL | format: bare number

Quick one: amount of 95% ethanol solvent required for dissolving each gram of "ClC(Cl)c1c2c3c(ccc2cc2[n+]1CCc1cc4c(cc1-2)OCO4)OCO3.O=C([O-])/C=C\C(=O)O" ? 23

Given the compound "COc1ccc2cc3[n+](c(C(Cl)Cl)c2c1OC)CCc1cc2c(cc1-3)OCO2.O=S(=O)([O-])c1ccccc1" , what is its reported amount of 95% ethanol solvent required for dissolving each gram? 7

# amount of 95% ethanol solvent required for dissolving each gram lookup, item Cc1ccc(S(=O)(=O)[O-])cc1.ClC(Cl)c1c2c3c(ccc2cc2[n+]1CCc1cc4c(cc1-2)OCO4)OCO3 [Compound 29, 8-dichloromethyl coptisine tosylate] 24

What value of amount of 95% ethanol solvent required for dissolving each gram has been reported for the following compound? "COc1ccc2cc3[n+](c(C(Cl)Cl)c2c1OC)CCc1cc2c(cc1-3)OCO2.O=C([O-])/C=C\C(=O)O" 5.8

What does the record list as amount of 95% ethanol solvent required for dissolving each gram for COc1ccc2cc3[n+](c(C(Cl)Cl)c2c1OC)CCc1cc2c(cc1-3)OCO2.Cc1ccc(S(=O)(=O)[O-])cc1 [Compound 31, 8-dichloromethyl berberine tosylate] ? 7
